# SYSTEM_NAME: HDAC1 (Homo sapiens)
# Sequence (Q13547 whole entry, species assumed): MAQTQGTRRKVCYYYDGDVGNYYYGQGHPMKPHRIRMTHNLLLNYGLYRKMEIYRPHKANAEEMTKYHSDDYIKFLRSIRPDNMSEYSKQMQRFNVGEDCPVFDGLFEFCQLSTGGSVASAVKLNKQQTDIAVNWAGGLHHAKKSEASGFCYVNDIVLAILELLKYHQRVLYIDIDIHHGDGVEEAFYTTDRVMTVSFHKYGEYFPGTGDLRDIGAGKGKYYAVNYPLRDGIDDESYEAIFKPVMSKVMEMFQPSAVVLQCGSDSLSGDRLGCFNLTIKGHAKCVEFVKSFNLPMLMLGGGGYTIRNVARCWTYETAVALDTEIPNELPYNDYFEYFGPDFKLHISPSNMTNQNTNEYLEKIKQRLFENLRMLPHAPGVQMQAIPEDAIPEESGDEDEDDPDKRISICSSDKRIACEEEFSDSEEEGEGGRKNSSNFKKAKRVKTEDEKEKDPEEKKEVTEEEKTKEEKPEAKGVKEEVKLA
pIC50: −log10 of the molar value.
Would you mind telling me the reported pIC50 of each entry?

Any idea what its pIC50 is? The compound is CN(C)c1cnc(N(CCCCCCC(=O)NO)c2cnccn2)cn1
6.00 to 7.00

Query CN(C)c1cc(N(CCCCCCC(=O)NO)c2cnccn2)ncn1 next
< 6.00

Query O=C(CCCCCCN(c1cnccn1)c1nccn2ncnc12)NO next
< 6.00

Query O=C(CCCCCCN(c1cnccn1)c1ccc(C(F)(F)F)nn1)NO next
6.00 to 7.00

Query O=C(CCCCCCN(c1cnccn1)c1cnccn1)NO next
< 6.00

Query Cc1nsc(N(CCCCCCC(=O)NO)c2ccnc(N3CCOCC3)n2)n1 next
6.00 to 7.00

Query Cn1ccc2ncnc(N(CCCCCCC(=O)NO)c3cnccn3)c21 next
< 6.00

Query Cc1noc(N(CCCCCCC(=O)NO)c2cncc(N3CCOCC3)n2)n1 next
< 6.00

Query Cc1cc(C(=O)N(C)C)nc(N(CCCCCCC(=O)NO)c2nc(C)ns2)n1 next
6.00 to 7.00

* * *

# TEST: Plasma clearance following IV dosing, CD1 mouse (Example A of WO 2014/072714 protocol)
# Assay type: in vivo
# CONDITIONS_USED: male CD1 mouse, 5 mg/kg I.V., 10% DMSO, 15% Cremophor, 75% Saline
PROPERTY_LABEL: clearance (mL/min/kg)
Only the number, expressed in mL/min/kg, is required.

Any idea what its clearance is? The compound is Cc1nsc(N(CCCCCCC(=O)NO)c2ccccn2)n1
253

* * *

# TEST: Plasma clearance following IV dosing, Balb/c mice (Example D protocol)
# Assay type: in vivo
# CONDITIONS_USED: mouse, male Balb/c mice, 3 mg/kg i.v., 5% NMP, 5% solutol HS-15 in 90% HPβCD solution
PROPERTY_LABEL: clearance (mL/min/kg)
Only the number, expressed in mL/min/kg, is required.

Any idea what its clearance is? The molecule is O=C(CCCCCCN(c1cnccn1)c1ccc(C(F)(F)F)nn1)NO [Example D]
48.6

* * *

# TEST: Plasma clearance following IV dosing, CD1 mice (Example 3 of WO 2010/086646 protocol)
# Format: in vivo
# CONDITIONS_USED: mouse, male CD1 mice, 5 mg/kg intravenously, 10% NMP/90% water
PROPERTY_LABEL: clearance (mL/min/kg)
Only the number, expressed in mL/min/kg, is required.

Any idea what its clearance is? The compound is O=C(CCCCCCN(c1ccccn1)c1ccccn1)NO
374

* * *

Recorded below: pIC50, system HDAC6 (Homo sapiens, UniProt Q9UBN7).
pIC50: −log10 of the molar value.

Any idea what its pIC50 is? The compound is O=C(CCCCCCN(c1cncnc1)c1cnccn1)NO [Example R]
≥ 7.00

Query O=C(CCCCCCN(c1cnccn1)c1ccc2nccn2n1)NO [Example F] next
≥ 7.00

Query COCc1cc(N(CCCCCCC(=O)NO)c2nc(C)ns2)ncn1 [Example M] next
≥ 7.00

Query Cn1ncc2ncnc(N(CCCCCCC(=O)NO)c3cnccn3)c21 [Example P] next
≥ 7.00

Query COc1ccc(N(CCCCCCC(=O)NO)c2cnccn2)nn1 [Example E] next
≥ 7.00

Query CN(C)c1ccc(N(CCCCCCC(=O)NO)c2cnccn2)nn1 [Example O] next
≥ 7.00

Query O=C(CCCCCCN(c1ccncn1)c1cnccn1)NO [Example K] next
6.00 to 7.00

Query CN(C)c1cnc(N(CCCCCCC(=O)NO)c2cnccn2)cn1 [Example Q] next
≥ 7.00
